- assay_notes: Pharmacokinetics in ICR mice
- Assay type: in vivo
- details: ICR, mouse, blood; IV, 60 mg/kg, 0.083 h, mice; read-out: Blood drug concentration
attribute_measured: concentration at […]
Give your result as the value with the unit written after it.

Req: State its concentration at […]: COc1cc2c(cc1Nc1nc(Nc3ccccc3S(=O)(=O)C(C)C)c3[nH]ccc3n1)N(C(=O)CN(C)C)CC2
Resp: 12400 ng/mL

###

- assay_notes: Pharmacokinetics in ICR mice;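 also: drug levels in collected samples measured by LC-MS/MS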
- Type: in vivo
- details: ICR, mouse, blood; IV, 5 mg/kg, 24 h, mice; read-out: Blood drug concentration
attribute_measured: concentration at 24 h
Give your result as the value with the unit written after it.

Req: State its concentration at 24 h: COc1cc2c(cc1Nc1nc(Nc3ccccc3S(=O)(=O)C(C)C)c3[nH]ccc3n1)N(C(=O)CN(C)C)CC2 [XMU-MP-5]
Resp: 2.09 ng/mL
